Value source: the supplement of paper PMC10567573

B1: FUT8 (parent)
chain: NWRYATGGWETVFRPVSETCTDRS

Variants of: B1
Assay: protein stability index of a GFP-peptide fusion (GPS, HEK-293T) (PSI 1-6); higher = more stable;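 note: lentivirally expressed fusions sorted by FACS into six bins by GFP to DsRed ratio, PSI derived from sequencing read proportions per bin multiplied by bin number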
Conditions: c terminus: a fixed tail appended
Please respond with reported protein stability index for every item in the list.
Just the number.

Task item: Need protein stability index of P15R , thanks.
Reply: 1.68

Task item: Need protein stability index of R3P , thanks.
Reply: 3.06

Task item: Need protein stability index of A5L , thanks.
Reply: 2.66

Task item: Need protein stability index of Y4H , thanks.
Reply: 3.39

Task item: Need protein stability index of Y4S , thanks.
Reply: 3.66

Task item: Need protein stability index of R14P , thanks.
Reply: 2.69

Task item: Need protein stability index of G7A , thanks.
Reply: 2.94

Task item: Need protein stability index of G8E , thanks.
Reply: 2.22

Task item: Need protein stability index of R3A , thanks.
Reply: 3.58

Task item: Need protein stability index of Y4P , thanks.
Reply: 3.85

Task item: Need protein stability index of T11Q , thanks.
Reply: 2.15

Task item: Need protein stability index of S17R , thanks.
Reply: 1.88

Task item: Need protein stability index of D22Q , thanks.
Reply: 1.69

Task item: Need protein stability index of C20M , thanks.
Reply: 2.33

Task item: Need protein stability index of T21H , thanks.
Reply: 1.56

Task item: Need protein stability index of P15W , thanks.
Reply: 1.98

Task item: Need protein stability index of W2P , thanks.
Reply: 4.16

Task item: Need protein stability index of G7T , thanks.
Reply: 2.12

Task item: Need protein stability index of G7Y , thanks.
Reply: 2.12

Task item: Need protein stability index of R23P , thanks.
Reply: 2.08

Task item: Need protein stability index of V12C , thanks.
Reply: 2

Task item: Need protein stability index of S24V , thanks.
Reply: 2.67
